EXPERIMENTAL READOUT: melting point (°C)
Form entry: value (°C) — number only.

The recorded melting point for COc1cccc(C(F)(F)F)c1S(=O)(=O)NC(=O)Nc1nc(C)cc(C)n1 is 190

The compound listed as CCOc1cccc(C)c1N(C(=O)n1nc(OCC)n(C)c1=O)S(N)(=O)=O shows melting point equal to 147

melting point recorded for this compound, O=S1(=O)c2cccc3cccc(c23)N1CCCCN1CC=C(c2ccc(Cl)cc2)CC1 , is 12

Per the records, this compound ( O=C(COc1cc(Cl)c(Cl)cc1Cl)OCNC(=O)Oc1ccccc1Cl ) has melting point equal to 119
